Listed below: EC50 values for each entry.
System: GT3a V321A NS5B mutant replicon
Assay: HCV NS5B mutant replicon assay, GT3a V321A
Type: cell-based
Conditions: Hepatitis C virus, Huh-7, 72 h, read-out: GT3a V321A EC50
Write the value in nM as a bare number.

Field: example entries. Status: answers known.
compound | unit.of.measurement | test.result
CC(C)(C)SSc1ccccc1CCOP1(=O)OC[C@H]2O[C@@H](n3ccc(N)nc3=O)[C@](C)(F)[C@@H]2O1 (single isomer, unassigned) | nM | 12
CC(C)OC(=O)[C@H](C)N[P@](=O)(OC[C@H]1O[C@@H](n2ccc(=O)[nH]c2=O)[C@](C)(F)[C@@H]1O)Oc1ccccc1 [sofosbuvir, reference compound] | nM | 166

Here is the next item to consider.
Please indicate EC50 recorded for CC(C)(C)SSc1ccccc1CCOP1(=O)OC[C@H]2O[C@@H](n3ccc(=O)[nH]c3=O)[C@](C)(F)[C@@H]2O1 (single isomer, unassigned)
12
